measured attribute: melting point

- molecule: "CCOP(=O)(OCC)C(OC)c1ccc(N)cc1 (stereo not given)"
  measured attribute: "melting point"
  readout value: "100 to 101 °C"
- molecule: "CCCCc1cn(Cc2ccc(-c3ccccc3C(=O)OC)cc2)c2cc(C(=O)N3CCCC3)ccc2c1=O"
  measured attribute: "melting point"
  readout value: "191 °C"
- molecule: "CCN(CC)C(=O)n1ccc(S(=O)(=O)c2cccc(Cl)c2C)n1"
  measured attribute: "melting point"
  readout value: "76 to 77 °C"
- molecule: "Cc1ccc(-c2occc2C(N)=O)cc1"
  measured attribute: "melting point"
  readout value: "174 °C"
- molecule: "CP(=O)(CCl)C1CCCCC1 (stereo not given)"
  measured attribute: "melting point"
  readout value: "51 to 53 °C"

-- ask I have this molecule here, O=C1NC(=O)c2c1cc1ccc3c(c1c2-c1ccc(OCc2ccccc2)cc1)OCO3 , and I need its recorded melting point.
-- reply 265 to 267 °C

-- ask So what does the record say about melting point for CCOP(=S)(NCc1cccc(-c2nc(=O)c3ccccc3s2)n1)OCC ?
-- reply 132 to 133 °C
